Test system: OVCAR-3 ovarian
Assay: NCI-60 one-dose screen, 48 h
Details: 10 µM unless noted
Compounds without any hit were thinned out: in the full panel of roughly 83,000, 20% have a hit. Calls of active or inactive are those of the source. How the source made its calls: active means growth percent below 10; inactive means the rest.
Labels: active, inactive

- O=C(/C=C/C(Cl)(Cl)Cl)Nc1ccc(Cl)cc1: inactive
- O=[N+]([O-])c1ccc(N2CCN(Cc3ccccc3)CC2)c2c1no[n+]2[O-]: active
- COC(=O)c1ccc(=O)c2nc3/c(=C/O)c(O)cc(=O)c3[nH]c12: active
- CCOC(=O)c1c(C)[nH]c2ccc(O)cc12: inactive
- c1ccc(C2NCCNC2c2ccccc2)cc1 (stereo not drawn): inactive
- CCCCCCCCCCCC[S+](C)CC(=O)[O-] (stereo not drawn): inactive
- O=Nc1ccc2ccccc2c1O: active
- CC(C)c1ccc(Nc2n[nH]c(=S)s2)cc1: inactive
- C/C(=N/NC(N)=S)c1ccc(C)cc1: inactive
- CC(C)=C1C=C2CC[C@@H]3[C@](C)(CCC[C@@]3(C)C(=O)O)[C@H]2CC1: inactive
- CCCCOS(=O)(=O)c1ccccc1: inactive
- NNc1cccc([N+](=O)[O-])c1: inactive
- CC(C)(C)c1ccc(O)c(Br)c1: inactive

###

System: SNB-19 CNS
Assay: NCI-60 one-dose screen, 48 h (100 = growth as untreated, 0 = no growth, -100 = all killed)
Conditions: 10 µM unless noted
About 83,000 compounds went through this panel and 20% of them were active in at least one assay; those are over-represented in the sample as a whole.
OBSERVATION_TYPE: growth (%)

• CN(C)c1ccc(C(C#N)(c2ccccc2)c2ccc(N(C)C)cc2)cc1 = 63.7
• COC1CC(C)C(OC)c2cc(O)cc(c2O)NC(=O)/C(C)=C/C=C\C(C)C(OC(N)=O)/C(C)=C\C(C)C1OC (stereo unspecified) = 37.8
• O=C1C=C(Cl)C(=O)c2ccccc21 = 97.4
• O=C1CSC(=S)N1Cc1cccnc1 = 110
• Cc1nc(Sc2nc3ccc([N+](=O)[O-])cc3s2)sc1C = 35.4
• O=C1C=CC(=O)N1c1cc(Cl)c(Cl)cc1Cl = 108
• COC(=O)c1cc([N+](=O)[O-])cc([N+](=O)[O-])c1Cl = 104
• Cc1ccc(Nc2ccc(O)c3c2C(=O)c2c(O)ccc(Nc4ccc(C)cc4)c2C3=O)cc1 = 91.6
• O=C(CBr)c1ccc(OC(=O)c2ccccc2)cc1 = 112
• CN(C)c1ccc(/C=C/c2nccc3ccccc23)cc1 = 79.4
• CCCCC(C=O)(C=C=C(C)C)CC (stereo unspecified) = 102

###

Tested on: NCI-H460 lung
Test: NCI-60 one-dose screen, 48 h
Settings: 10 µM unless noted
About 83,000 compounds went through this panel and 20% of them were active in at least one assay; those are over-represented in the sample as a whole. The source made the active and inactive calls. How the source made its calls: active means growth percent below 10; inactive means the rest.
Labels: active, inactive

• CC(C)c1ccc(C(=O)OC2CCCC2)cc1 = inactive
• OC(CSc1ccccc1)CN1CCN(c2ccc(Cl)cc2)CC1 (stereo unspecified) = inactive
• CC(C)Nc1ccc(Nc2ccc(NC(C)C)cc2)cc1 = inactive
• O=[N+]([O-])/C(=C/c1ccccc1)c1ccccc1 = inactive
• S=c1[nH]c2cc(Cl)ccc2s1 = inactive
• O=C(C[P+](c1ccccc1)(c1ccccc1)c1ccccc1)c1ccccc1 = inactive
• O=C(O)c1cc2c(s1)C(=O)c1sccc1C2=O = inactive
• CCCCCCCCCCCCCCCc1ccc(C(=O)C[n+]2ccccc2)cc1 = active
• Oc1ccc2c(c1)CCc1ccccc1-2 = inactive
• O=C1C=CC(=O)N1c1ccccc1 = inactive
• [Cl-].[Rh+3].c1ccc(-c2ccnc3c2ccc2c(-c4ccccc4)ccnc23)cc1.c1ccc(-c2ccnc3c2ccc2c(-c4ccccc4)ccnc23)cc1.c1ccc(-c2ccnc3c2ccc2c(-c4ccccc4)ccnc23)cc1 = inactive

###

System: HCC-2998 colon
Assay: NCI-60 one-dose screen, 48 h
Settings: 10 µM unless noted
About 83,000 compounds went through this panel and 20% of them were active in at least one assay; those are over-represented in the sample as a whole. Activity calls are given as the source filed them. Rule for the calls: active = growth percent below 10; inactive = the rest.
Labels: true (1) (active), false (0) (inactive)

• CCC1CCCCN1C(=S)N/N=C(\C)c1ccccn1 (stereo not given) = false (0)
• CN(C)c1ccc(/C=C/c2cc[n+](C)c(/C=C/c3ccc(N(C)C)cc3)c2)cc1 = false (0)
• Clc1ccc(-n2ncc3c(NCCCN4CCOCC4)ncnc32)cc1 = false (0)
• COc1cc([C@@H]2c3cc4c(cc3[C@H](OC3OC5COC(c6ccccc6)OC5C(O)C3O)[C@H]3COC(=O)[C@H]23)OCO4)cc(OC)c1OC (stereo not given in full) = true (1)
• CCCOS(=O)(=O)c1ccccc1 = false (0)

###

Listing: growth of selected molecules
System: CCRF-CEM leukemia
Experiment: NCI-60 one-dose screen, 48 h (100 = growth as untreated, 0 = no growth, -100 = all killed)
Conditions: 10 µM unless noted
Compounds without any hit were thinned out: in the full panel of roughly 83,000, 20% have a hit.
OBSERVATION_TYPE: growth (%)

* O=[N+]([O-])c1ccc(C(Br)c2ccc([N+](=O)[O-])cc2)cc1 | 16.3
* COC(=O)Nc1nc2ccc(C3(c4ccc(F)cc4)OCCO3)cc2[nH]1 | 5.57
* Oc1ccc2ccccc2c1N=Nc1nccs1 | -7.19
* CCCCCCCCCCCCNCCCc1ccccc1 | 48.9
* O=C(c1ccccc1)c1ccc(O)c2ncccc12 | 29.5
* O=C1C=CC(=O)c2c(O)c(CO)c(CO)c(O)c21 | 78.5
* O=S(=O)(O)c1cnccn1 | 112
* CCC(C)C(N)C(=O)NC(CC(N)=O)C(=O)NC(CC(C)C)C(=O)NC(CCCCN)C(=O)NC(C)C(=O)NC(CC(C)C)C(=O)NC(C)C(=O)NC(C)C(=O)NC(CC(C)C)C(=O)NC(C)C(=O)NC(CCCCN)C(=O)NC(CCCCN)C(=O)NC(C(=O)NC(CC(C)C)C(N)=O)C(C)CC (stereo not given) | 83.8
* N#CCc1cccc2ccccc12 | 91.9
* CCCCCCCCCCCCSC(=N)N | -22.8

###

System: OVCAR-5 ovarian
Assay: NCI-60 one-dose screen, 48 h (100 = growth as untreated, 0 = no growth, -100 = all killed)
Conditions: 10 µM unless noted
About 83,000 compounds went through this panel and 20% of them were active in at least one assay; those are over-represented in the sample as a whole.
OBSERVATION_TYPE: growth (%)

• COc1cc([C@@H]2c3cc4c(cc3[C@H](OC3OC5COC(c6ccccc6)OC5C(O)C3O)[C@H]3COC(=O)[C@H]23)OCO4)cc(OC)c1OC (stereo not given in full) = 38.1
• CC(C)Nc1ccc(Nc2ccc(NC(C)C)cc2)cc1 = 96.3
• Cc1cc(Br)c2nsnc2c1[N+](=O)[O-] = 72.8
• C/C(=N\NC(=S)N1CC2CCC(CC2)C1)c1ccccn1 = 24.5
• CSc1nc(C)c(C(=O)CCN2CCN(c3ccccn3)CC2)s1 = 104
• O=C1C=CC(=O)N1c1ccc(O)cc1 = 105
• CCCCCCCCCCCC[n+]1ccc(CCCCCCCCC)cc1 = -16.8
• CCN(CC)c1ccc(/C=C\C(=O)c2ccc(NC(C)=O)cc2)cc1 = 68.5
• O=C1C=CC(O)=CC1=P(c1ccccc1)(c1ccccc1)c1ccccc1 = 74.7
• CC(C)(C)c1ccc(O)c(Br)c1 = 98.1

###

Tested on: SK-MEL-28 melanoma
Assay: NCI-60 one-dose screen, 48 h
Settings: 10 µM unless noted
This is part of a sample that, as a whole, favours compounds with a hit. Of some 83,000 tested, about 20% had one in any assay. Calls of active or inactive are those of the source. How the source made its calls: active means growth percent below 10; inactive means the rest.
Labels: Yes (active), No (inactive)

* CCCC[n+]1c(/C=C\c2c(OC)cc(OC)cc2OC)ccc2ccccc21 | Yes
* COc1cc([C@@H]2c3cc4c(cc3[C@H](OC3OC5COC(c6ccccc6)OC5C(O)C3O)[C@H]3COC(=O)[C@H]23)OCO4)cc(OC)c1OC (stereo partly specified) | No
* Cc1c(O)ccc(SC#N)c1C | No
* O=[N+]([O-])C=C(c1ccccc1)c1ccccc1 | No
* CCN(CC)CCNC(Cc1ccccc1)c1ccc(OCc2ccccc2)cc1 (stereo unspecified) | No
* NC(CS/C(Cl)=C/Cl)C(=O)O (stereo unspecified) | No

###

Tested on: OVCAR-4 ovarian
Assay: NCI-60 one-dose screen, 48 h (100 = growth as untreated, 0 = no growth, -100 = all killed)
Conditions: 10 µM unless noted
Compounds without any hit were thinned out: in the full panel of roughly 83,000, 20% have a hit.
So basically: growth at 90% or higher? That is t. Lower than 90%? That is f.

• Oc1c(Cl)cc(Cl)cc1C=NCC1CCC(CN=Cc2cc(Cl)cc(Cl)c2O)CC1 (stereo not drawn) = f
• O/N=C1\c2ccccc2-c2ccc(F)cc21 = f
• Nc1ccc(-c2ccc(N)c(S(=O)(=O)O)c2)cc1S(=O)(=O)O = t
• OCCOSCCO = t
• CCCCCC/C=C1\CCC(CN2CCCC2)C1=O (stereo not drawn) = t
• O=C(Nc1ccc(Cl)c(Cl)c1)OCc1ccco1 = f
• CN1CSC(=S)N(Cc2ccccc2)C1 = t
• Cc1cc2cccnc2c2ncccc12 = f
• CCCCCCCCCCCCCCCCCC[S+](C)CC (stereo not drawn) = f
• CC(C)(C)c1ccc(CCO)cc1 = t
• O=C1C=Cc2ccccc2/C1=C/c1nc(-c2ccccc2)oc1O = f
• CN(C)CCSC1=Nc2ccc(Cl)cc2C(c2ccccc2Cl)N(C)C1 (stereo not drawn) = f
• CCCCCCN(CCCCCC)CCCNc1nccc2ccccc12 = f
